Item-by-item account of k
Test: Stability in human liver microsome
Conditions: human liver microsome 0.5 mg protein/mL, compound 1 μM, 37° C.

Observe how each entry below is paired with its result.
COC1(C)CCN(c2c(C#N)c(=O)[nH]c3cnc(C(C)(C)O)cc23)CC1 [Compound 109] | 0.4444 min⁻¹
CCc1cc2c(N3CCC(C)(OC)CC3)c(C#N)c(=O)[nH]c2cn1 [Compound 107] | 0.0023 min⁻¹
COCCOc1cc2c(N3CCC(C)(OC)CC3)c(C#N)c(=O)[nH]c2cn1 [Compound 145] | 0.0019 min⁻¹
COc1cc2c(N3CCC4(CCC4)CC3)c(C#N)c(=O)[nH]c2cn1 [Compound 66] | -0.515 min⁻¹

Could you now consider this next compound?
Quick one: k of COC1(C)CCN(c2c(C#N)c(=O)[nH]c3cnccc23)CC1 [Compound 81] ? 0.0012 min⁻¹

* * *

Experiment: Stability in human liver microsome
Details: human liver microsome 0.5 mg protein/mL, compound 1 μM, 37° C.
Reported values of k for individual entries
Report as a plain number; the unit min⁻¹ is understood.

Answered cases to consult:
N#Cc1c(N2CC[C@@H](n3cccn3)C2)c2ccncc2[nH]c1=O | 0.191
N#Cc1c(N2CCC3(CC2)CC3)c2cc(C(O)CO)ncc2[nH]c1=O (stereo not shown) | -0.3760
N#Cc1c(N2CCCCCC2)c2ccccc2[nH]c1=O [Compound I-8, reference compound] | 0.727

Looking for the measured k of N#Cc1c(N2CCC3(CC2)CC3)c2cc(C(=O)O)ncc2[nH]c1=O , can you help? 0.5421

* * *

Assay: Rat pharmacokinetic evaluation
Type: in vivo, SD male rats
Conditions: SD rat, intragastric 5.0 mg/kg
Description: Experimental Example 4: Rat Pharmacokinetic Evaluation of the Compounds of the Invention Aim: The in vivo pharmacokinetic parameters of the compounds in SD male rats (purchased from Beijing Vital River Animal Technology Co., Ltd.) were evaluated and bioavailability of the compounds was examined. Animal Administration and Sample Collection: The solution of compounds 65, 90, 107, 158 was intragastrically administered to SD rat at a dose of 5.0 mg/kg. […]
ATTRIBUTE MEASURED: tz1/2 po (terminal elimination half-life) (h)
State just the number; it will be interpreted in h.

Cc1cc2c(N3CCC4(CCC4)CC3)c(C#N)c(=O)[nH]c2cn1 | 2.25
CCc1cc2c(N3CCC4(CC3)CC4)c(C#N)c(=O)[nH]c2cn1 | 9.60
N#Cc1c(N2CCC3(CC2)CC3)c2ccncc2[nH]c1=O | 1.40

Item CC(C)(O)c1cc2c(N3CCC4(CC3)CC4)c(C#N)c(=O)[nH]c2cn1 has what recorded tz1/2 po (terminal elimination half-life)? 3.24

Look up tz1/2 po (terminal elimination half-life): N#Cc1c(N2CCC3(CC2)CC3)c2cc(C(O)C3CC3)ncc2[nH]c1=O (centres unmarked) 4.49

* * *

Conditions: human
ATTRIBUTE MEASURED: k (min⁻¹)
Give the value, in units of min⁻¹, as a plain number.

Solved entries:
CCc1cc2c(N3CCC4(CC3)CC4)c(C#N)c(=O)[nH]c2cn1 [Compound 76] | 0.0015
N#Cc1c(N2CCC3(CCC3)CC2)c2cc(N3CC(N)C3)ncc2[nH]c1=O [Compound 53] | 0.4821
N#Cc1c(N2CCC3(CC2)CC3)c2ccncc2[nH]c1=O [Compound 25] | 0.0022

// query k value for entry CC(C)(O)c1cc2c(N3CCC4(CCC4)CC3)c(C#N)c(=O)[nH]c2cn1 [Compound 82] 0.9760

Consider the compound N#Cc1c(N2CCC3(CCC3)CC2)c2cc(N3CC(O)C3)ncc2[nH]c1=O [Compound 51] and give its measured k. 0.9418

For N#Cc1c(N2CCC3(CC2)CC3)c2ncccc2[nH]c1=O [Compound 80] , what is its reported k? 0.9877

Can you share its k? I mean this compound: N#Cc1c(N2CCC3(CC2)CC3)c2cc(C(O)C3CC3)ncc2[nH]c1=O (stereo not shown) [Compound 90] 0.0037

* * *

Experiment: Stability in human liver microsome
Details: human, liver microsomes
ATTRIBUTE MEASURED: half-life at 1 μM (min)
Please state the figure in min; there is no need to write the unit.

Any idea what half-life at 1 μM was measured for N#Cc1c(N2CCCCCC2)c2ccccc2[nH]c1=O [Compound I-8, reference compound] ? 11.1

* * *

Test: Rat pharmacokinetic evaluation
Assay type: in vivo, SD male rats
Conditions: SD rat, intravenous bolus 1 mg/kg
tz1/2 iv (terminal elimination half-life) reference
Unit h implied. Number only.

CCc1cc2c(N3CCC4(CC3)CC4)c(C#N)c(=O)[nH]c2cn1 | 0.89

Which value of tz1/2 iv (terminal elimination half-life) has been reported for Cc1cc2c(N3CCC4(CCC4)CC3)c(C#N)c(=O)[nH]c2cn1 in the records? 1.47

Give its tz1/2 iv (terminal elimination half-life) value. Item: CC(C)(O)c1cc2c(N3CCC4(CC3)CC4)c(C#N)c(=O)[nH]c2cn1 1.89

Would you mind telling me what tz1/2 iv (terminal elimination half-life) value was observed for N#Cc1c(N2CCC3(CC2)CC3)c2ccncc2[nH]c1=O ? 0.51

Which tz1/2 iv (terminal elimination half-life) value belongs to N#Cc1c(N2CCC3(CC2)CC3)c2cc(C(O)C3CC3)ncc2[nH]c1=O (stereo not drawn) ? 1.48
